These entries and their values trace back to patent EP2196465A1.

Recorded IC50 for the following compounds
Measurement target: recombinant PDE4 enzyme
Test details: PDE4 [3H] cAMP Scintillation Proximity Assay (SPA)
Conditions used: inhibition of PDE4; 30 nM [3H] cAMP, 1 hr at room temperature, yeast extract of recombinant PDE4 enzyme
Measure name: IC50 (nM)

{"Mol smiles": "CCn1nc(-c2cccc(-c3cccc(CC(=O)NCCN4CCCCC4)c3)c2)cc(NC(=O)Nc2c(Cl)cncc2Cl)c1=O", "Scale unit": "nM", "Measured value": 0.1}
{"Mol smiles": "CCn1nc(-c2cccc(-c3cccc(C(=O)NCCCN(C)C)c3)c2)cc(NC(=O)Nc2c(Cl)cncc2Cl)c1=O", "Scale unit": "nM", "Measured value": 0.133}
{"Mol smiles": "CCn1nc(-c2cccc(-c3cccc(C(=O)NC4CC4)c3)c2)cc(NC(=O)Nc2c(Cl)cncc2Cl)c1=O", "Scale unit": "nM", "Measured value": 0.127}
